experiment: basal RPMI8226 viability, no added stimulus, profiling panel, cell-based, calcein-AM fluorescence, 48 h, PK04 Diversity Set (AID 1166);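 further: cells grown under basal conditions without added stimulus; test concentration not given here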
measurement setup: RPMI8226 myeloma viability, higher = more signal
The label TRUE is reserved for z-score strictly under -0.06; FALSE covers values equal to or above it.

Reference set, count: 3
C[N+](C)(C)CCCCCCNC(=O)[C@H]1C[C@H]2C(=O)NCC(=O)N2[C@H]1c1cccc(OCCO)c1; FALSE
COC(=O)[C@@]1(Cc2ccc(F)cc2)[C@H]2c3cc(C(=O)N(C)C)n(CCN4CCOCC4)c3C[C@H]2CN1C(=O)c1ccccc1; TRUE
C[N+](C)(C)CCCCCCNC(=O)[C@@H]1C[C@@H]2C(=O)N[C@@H](Cc3ccccc3)C(=O)N2[C@@H]1c1ccc(O)cc1; FALSE

Threshold test, z-score < -0.06: CO[C@H]1O[C@H](CO)[C@@H](OC(=O)Nc2ccc3c(c2)OCO3)[C@@H]2OC(=O)[C@@H](Cc3ccccc3)C/C=C/C[C@H](Cc3ccccc3)C(=O)O[C@@H]12
TRUE

Dear reviewer, please state whether COc1cc2c(cc1O)C(c1ccc(CN3CCCC3)cc1)N(Cc1cccc(OC(F)(F)F)c1)CC2 (stereo not drawn) has z-score strictly beneath -0.06.
TRUE

----------
Tested on: Sam68 (KHDRBS1)
experiment: Sam68 small-molecule binders, primary screen, biochemical, small-molecule microarray, 635 nm fluorescence (AID 1125);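 further: score merges 667 nm channel intensity with signal to noise over triplicate slides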
measurement setup: small-molecule microarray binding, higher = more signal
Please provide measured composite z-score for the entries that follow.
One number for each entry.

Example results:
CCCCC(O)C1C=CC2C(=O)NC(=O)C2N1Nc1ccc(Cl)cc1Cl (configuration not stated); 0.0434
C#CCN([C@H](/C=C/C1CC1)[C@@H](O)Cc1ccccc1)[C@@H](Cc1ccccc1)C(=O)OC; 0.0511
COCCOC(=O)N1C(=O)[C@@]2(c3cc(C#CC4(O)CCCCCC4)ccc31)[C@H](c1ccc(OCCO)cc1)N1[C@H](c3ccccc3)[C@H](c3ccccc3)OC(=O)[C@H]1[C@@H]2C(=O)N1CCCCCCC1; 1.31
O=C1OCCC=C[C@H]2OC34C=CCN(c5ccc(Cl)cc5)C(=O)[C@H]3N(CCO)C(=O)[C@@H]4C12 (some centres not stated); -0.914
C=CCC(OC(C)=O)[C@@H]1[C@@H](N(Cc2ccc(-c3ccccc3)cc2)C(=O)c2cccc3ccccc23)c2cc(OCCCO)ccc2N1C(=O)c1ccc2ccccc2c1 (some centres not stated); 0.263

Return reported composite z-score values for all items listed beneath this line.
1. CCCCC(=C=CC[C@H](O)c1ccc(OCCO)cc1)C[C@H](O)c1ccccn1
2. O=C1O[C@H](c2ccccc2)[C@H](c2ccccc2)N2[C@H]1[C@@H](C(=O)NC[C@H](O)c1ccccc1)[C@]1(C(=O)Nc3ccc(C#CCCO)cc31)[C@H]2c1ccccc1OCCO
3. N[C@@H](Cc1ccccc1)Cn1cc(C2(O)CCCCC2)nn1

1: 1.18; 2: 1.29; 3: 0.525

Go through the list and state composite z-score for each entry.
1. CC(C)CNC(=O)[C@@H]1c2ccccc2C(=O)N(CC23CC4CC(CC(C4)C2)C3)[C@H]1c1ccc(CO)cc1
2. O=C1C2C=CC(C(O)c3cccc(O)c3)N(Nc3ccccc3F)C2C(=O)N1c1ccccc1 (configuration not stated)
3. CCOC(=O)C[C@H]1[C@H](OC(=O)c2cc3ccccc3oc2=O)[C@@H](NC(=O)C2CCCCC2)c2cc(OCCCO)ccc2N1C(=O)Cc1ccc(OC)cc1
4. COCCOC(=O)N1C(=O)[C@@]2(c3cc(C#CC4(O)CCCCCC4)ccc31)[C@H](c1ccccc1OCCO)N1[C@H](c3ccccc3)[C@H](c3ccccc3)OC(=O)[C@H]1[C@@H]2C(=O)N1CCCCCCC1
5. C=CCC(OC(C)=O)[C@@H]1[C@@H](N(Cc2ccc(-c3cccc(C(F)(F)F)c3)o2)C(=O)Cc2ccc(F)cc2)c2cc(OCCCO)ccc2N1C(=O)c1ccc2ccccc2n1 (some centres not stated)

1: 0.985; 2: 0.664; 3: 0.736; 4: 1.29; 5: 0.388

I need composite z-score for every entry listed below, if you could help.
1. C=C(COC)C(=O)CC[C@@H](OC(C)=O)c1ccc(OCCO)cc1
2. CC(C)CNC(=O)[C@@]1(C)c2ccccc2C(=O)N(Cc2cc(F)cc(C(F)(F)F)c2)[C@H]1c1ccc(CO)cc1
3. COC(=O)[C@@]1(Cc2ccc(OC)cc2)[C@H]2c3cc(C(=O)N4CCCC4)n(CCc4ccc(OC)c(Br)c4)c3C[C@H]2CN1C(=O)c1ccccc1
4. COC(=O)C1=CC(CCCO)=CC(c2ccc(CN3CCCC3)cc2)N(Cc2sc3ccccc3c2Cl)C=C1C(=O)OC (configuration not stated)
5. C=CC[C@]1(C(=O)N(C)C)COC(c2ccc(OCCCO)cc2)=N1
6. O=C1OCCC=C[C@H]2OC34C=CCN(CCN5CCOCC5)C(=O)[C@H]3N(CCCO)C(=O)[C@@H]4C12 (some centres not stated)
7. CCCC[C@H]1OB(O)C[C@H]2C1=C(C)C[C@H]1C(=O)C=CC(=O)[C@H]12
8. CN1C(=O)[C@]2(CCC(=O)OC(C)(C)C)N=C(c3ccc(OCCCO)cc3)O[C@@H]2c2ccccc21

0.744
1.17
0.251
1.3
1.25
-0.119
1.04
1.28
